Dear all, I have gathered published log10 of IC50 values for Substance-P receptor (Homo sapiens, UniProt P25103); the list follows.
Record value = log10 of IC50 given in nM.

Compound	log10 of IC50
Cn1c(C(=O)NCc2ccc(C(F)(F)F)cc2)c(-c2ccccc2)c2ccccc2c1=O	1.30

Provide log10 of IC50, tested on Substance-P receptor (Homo sapiens, UniProt P25103), for Cc1ccc(CNC(=O)c2c(-c3ccccc3)c3cc(C)c(C)cc3c(=O)n2C)cc1 .
0.94

Provide log10 of IC50, tested on Substance-P receptor (Homo sapiens, UniProt P25103), for COC1CN(c2cc(-c3ccc(F)cc3C)c(N(C)C(=O)C(C)(C)c3cc(C(F)(F)F)cc(C(F)(F)F)c3)cn2)CCC1CC(=O)O (stereo not drawn) .
0.52

Provide log10 of IC50, tested on Substance-P receptor (Homo sapiens, UniProt P25103), for COc1ccccc1-c1c(C(=O)N(C)Cc2cc(C(F)(F)F)cc(C(F)(F)F)c2)c(=O)oc2ccccc12 .
0.11

Provide log10 of IC50, tested on Substance-P receptor (Homo sapiens, UniProt P25103), for O=C(Cc1cc[n+]([O-])cc1)NCC(COCc1cc(C(F)(F)F)cc(C(F)(F)F)c1)c1ccc(F)cc1 (stereo not drawn) .
0.86

Provide log10 of IC50, tested on Substance-P receptor (Homo sapiens, UniProt P25103), for Cc1cc2c(-c3ccccc3)c(C(=O)NCc3ccccc3Cl)n(C)c(=O)c2cc1C .
1.93

Provide log10 of IC50, tested on Substance-P receptor (Homo sapiens, UniProt P25103), for Cc1cc(F)ccc1-c1cc(C2CCC(CCC(=O)O)CC2)ncc1N(C)C(=O)C(C)(C)c1cc(C(F)(F)F)cc(C(F)(F)F)c1 (stereo not drawn) .
0.25

* * *

Dear all, I have gathered published IC50 values for Substance-P receptor (Homo sapiens, UniProt P25103); the list follows.

Molecule	Experimental System	IC50
Cc1cccc(C)c1-c1c(C(=O)NCc2cc(C(F)(F)F)cc(C(F)(F)F)c2)n(C)c(=O)c2ccccc12	Substance-P receptor (Homo sapiens, UniProt P25103)	82 nM

Give the value of IC50 reported for the following: C[C@@H](OCC1(c2ccc(F)cc2)CCNCC1)c1cc(Cl)cc2c(Cl)n[nH]c12
0.01 to 100 nM

Give the value of IC50 reported for the following: Cc1cccc(C)c1-c1c(C(=O)N(C)Cc2cc(C(F)(F)F)cc(C(F)(F)F)c2)n(C)c(=O)c2ccccc12
46 nM

Give the value of IC50 reported for the following: CN(Cc1cc(C(F)(F)F)cc(C(F)(F)F)c1)C(=O)c1c(-c2ccc(F)cc2)c2c(F)cccc2c(=O)n1C
1.2 nM

Give the value of IC50 reported for the following: O=C(NCC(COCc1cc(C(F)(F)F)cc(C(F)(F)F)c1)c1ccccc1)c1cc[n+]([O-])cc1 (centres unmarked)
5.8 nM

* * *

Dear all, I have gathered published pIC50 values for Substance-P receptor (Homo sapiens); the list follows.
Quick note: pIC50 means taking -log10 of the concentration in moles per liter.

Molecule	pIC50
Cc1cc(F)ccc1-c1cc(N2CCC(CC(=O)O)C(C)(C)C2)ncc1N(C)C(=O)C(C)(C)c1cc(C(F)(F)F)cc(C(F)(F)F)c1 (centres unmarked)	8.34

Give the value of pIC50 reported for the following: COc1ccc(S(F)(F)(F)(F)F)cc1CN[C@H]1CCCN[C@H]1c1ccccc1
9.19

Give the value of pIC50 reported for the following: COc1ccccc1-c1c(C(=O)N(C)Cc2cc(C(F)(F)F)cc(C(F)(F)F)c2)n(C)c(=O)c2ccccc12
7.92

Give the value of pIC50 reported for the following: CN(Cc1cc(C(F)(F)F)cc(C(F)(F)F)c1)C(=O)[C@H]1[C@H](c2ccc(F)cc2)c2ccccc2C(=O)N1C (relative stereo)
7.24

Give the value of pIC50 reported for the following: O=C(C=Cc1ccc[n+]([O-])c1)NCC(COCc1cc(C(F)(F)F)cc(C(F)(F)F)c1)c1ccccc1 (centres unmarked)
8.07
